tested on: M. kansasii 6509/96 (clinically isolated strain); assay: Antimycobacterial MIC micromethod; type: cell-based; conditions: Mycobacterium kansasii, 336 h; 14 d; read-out: MIC M. kansasii 6509/96
Listing of recorded MIC by entry.
In your response, put the unit directly after the numeric value.

Worked examples, 5 compounds total:
>>> reported_measurement("O=C(Oc1ccc(Cl)cc1C(=O)Nc1ccc(Br)cc1)c1ccc(C(F)(F)F)cc1")
"8 µM"
>>> reported_measurement("O=C(Oc1ccc(Cl)cc1C(=O)Nc1cccc(C(F)(F)F)c1)c1ccc(C(F)(F)F)cc1")
"4 µM"
>>> reported_measurement("O=C(Oc1cc(Cl)ccc1C(=O)Nc1ccc(F)cc1)c1ccc(C(F)(F)F)cc1")
"8 µM"
>>> reported_measurement("O=C(Oc1ccc(Br)cc1C(=O)Nc1ccc(C(F)(F)F)cc1)c1ccc(C(F)(F)F)cc1")
"2 µM"
>>> reported_measurement("O=C(Oc1ccc(Cl)cc1C(=O)Nc1ccc(Cl)c(Cl)c1)c1ccc(C(F)(F)F)cc1")
"2 µM"

Input line: Any idea what MIC was measured for O=C(Oc1cc(Cl)ccc1C(=O)Nc1ccc(C(F)(F)F)cc1)c1ccc(C(F)(F)F)cc1 ?
Output line: 4 µM

Input line: So what does the record say about MIC for O=C(Oc1cc(Cl)ccc1C(=O)Nc1cccc(F)c1)c1ccc(C(F)(F)F)cc1 ?
Output line: 8 µM

Input line: Record request: MIC value, item O=C(Oc1cc(Cl)ccc1C(=O)Nc1ccc(Cl)cc1)c1ccc(C(F)(F)F)cc1
Output line: 4 µM

Input line: # get_value(readout='MIC', item= O=C(Oc1cc(Cl)ccc1C(=O)Nc1cccc(Cl)c1)c1ccc(C(F)(F)F)cc1 )
Output line: 8 µM
